# Target Under Test: aromatase (Homo sapiens, UniProt P11511)
# Sequence (P11511 whole entry): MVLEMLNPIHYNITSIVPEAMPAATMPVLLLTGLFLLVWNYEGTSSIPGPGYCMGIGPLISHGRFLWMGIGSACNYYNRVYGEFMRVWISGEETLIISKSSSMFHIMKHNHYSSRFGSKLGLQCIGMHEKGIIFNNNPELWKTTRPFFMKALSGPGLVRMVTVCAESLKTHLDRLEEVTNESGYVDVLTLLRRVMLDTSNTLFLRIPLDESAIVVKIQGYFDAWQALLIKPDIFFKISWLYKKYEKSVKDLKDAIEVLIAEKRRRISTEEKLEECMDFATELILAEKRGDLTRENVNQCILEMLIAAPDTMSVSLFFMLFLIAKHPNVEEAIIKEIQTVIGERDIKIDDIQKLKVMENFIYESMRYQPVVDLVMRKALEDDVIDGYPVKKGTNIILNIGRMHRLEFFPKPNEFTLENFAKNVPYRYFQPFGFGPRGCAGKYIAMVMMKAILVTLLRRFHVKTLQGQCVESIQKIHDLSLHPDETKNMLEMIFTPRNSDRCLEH
pIC50: −log10 of the molar value.
Returns Met if the recorded pIC50 is greater than or equal to 6, and Not met otherwise.

Structure String: C=C1C[C@@H]2[C@H](CC[C@]3(C)C(=O)OCC[C@@H]23)[C@@]2(C)C=CC(=O)C=C12
Class Assignment: Not met

Structure String: C[C@]12CC[C@H]3[C@@H](CC(=O)C4=CC(=O)CC[C@@]43C)[C@@H]1CCOC2
Class Assignment: Not met

Structure String: C[C@]12CCC(=O)C(O)=C1CC[C@@H]1[C@@H]2CC[C@]2(C)C(=O)OCC[C@@H]12
Class Assignment: Met

Structure String: C[C@]12CC[C@H]3[C@@H](CCC4=C(O)C(=O)CC[C@@]43C)[C@@H]1CCOC2
Class Assignment: Not met
